Where do the numbers come from? From PubChem BioAssay (NCI).

System: MCF7 breast
Experiment: NCI-60 one-dose screen, 48 h
Conditions: 10 µM unless noted
About 83,000 compounds went through this panel and 20% of them were active in at least one assay; those are over-represented in the sample as a whole. Activity calls are given as the source filed them. How the source made its calls: active means growth percent below 10; inactive means the rest.
Respond only with the outcome that fits, drawn from T (active), F (inactive)

Past entries and their recorded results:
compound | assigned.category
COc1cc(C2CC(c3ccc(C)cc3)=NN2C=O)ccc1Oc1nc2c(c(=O)n(C)c(=O)n2C)n1C (stereo not given) | F
CCC(=O)NC1=C(Cl)C(=O)C(NC(=O)CC)=C(Cl)C1=O | F
OC(COCc1ccccc1)COCc1ccccc1 | F
CN(C)c1ccc(/C=C\c2cccc[n+]2C)cc1 | F
COc1cc(C2CC(c3ccc(Cl)cc3)=NN2C(C)=O)ccc1Oc1ccnc2cc(Cl)ccc12 (stereo not given) | F

Challenge: What did this assay record as the result for CCOC(=O)Nc1ccc2nc(N3CCCCCC3)sc2c1 ?
Response given: F

Challenge: What did this assay record as the result for CCC1N=C(N)N=C(N)N1c1ccc(Cl)cc1 (stereo not given) ?
Response given: F

Challenge: What did this assay record as the result for Oc1ccccc1-c1nnc(COc2ccc(Cl)cc2Cl)o1 ?
Response given: F

Challenge: What did this assay record as the result for COc1cc(C2CC(=O)Nc3c2cnn3C)cc(OC)c1OC (stereo not given) ?
Response given: F

Challenge: What did this assay record as the result for C=C(C)[C@@H]1CC[C@]2(C(=O)O)CC[C@]3(C)[C@H](CC[C@@H]4[C@@]5(C)C[C@@H](CC#Cc6ccc(C(C)=O)s6)[C@H](O)C(C)(C)[C@@H]5CC[C@]43C)[C@@H]12 ?
Response given: F

Challenge: What did this assay record as the result for Cc1cc(O)ccc1Sc1ccccc1[N+](=O)[O-] ?
Response given: F

Challenge: What did this assay record as the result for COC(=O)OC1C(O[C@H]2C[C@H]3[C@@H]4CC=C5C[C@@H](O)CC[C@]5(C)[C@H]4CC[C@]3(C)[C@H]2[C@H](C)C(=O)CCC(C)C)OCC(O)C1OC1OCC(O)C(O)C1OC(=O)c1ccc(OC)cc1 (stereo not given in full) ?
Response given: T

Challenge: What did this assay record as the result for Cc1cccc(/C=N/n2c(-c3ccc(Cl)cc3)nc3c(Br)cc(Br)cc3c2=O)c1 ?
Response given: F

Challenge: What did this assay record as the result for CC1(C)CN(CCNc2nccc(-c3c(-c4cccc(O)c4)nc4sccn34)n2)S(=O)(=O)N1 ?
Response given: F

Challenge: What did this assay record as the result for COc1cc(CN(CCC(O)N2CCCC2=O)Cc2ccc3c(c2)OCO3)cc(OC)c1OC (stereo not given) ?
Response given: F

Challenge: What did this assay record as the result for COc1ccccc1/C=N\Nc1ccc([N+](=O)[O-])cn1 ?
Response given: F

Challenge: What did this assay record as the result for CC(C)(C)c1ccc(OC(=O)Nc2ccccc2)cc1 ?
Response given: F

Challenge: What did this assay record as the result for O=C(NO)c1ccc(CNc2cccc3nc(C4CC4)n(-c4ccccc4)c(=O)c23)cc1 ?
Response given: F

Challenge: What did this assay record as the result for O=S1(=O)NCCCN1CCNc1nccc(-c2c(-c3cccc(O)c3)nc3sccn23)n1 ?
Response given: F

Challenge: What did this assay record as the result for CN1C(=O)C(C2=NNC(c3ccccc3C(=O)O)C2)C(=O)N(C)C1=O (stereo not given) ?
Response given: F
